Test system: CN0375-F725-PDC KRAS spheroid viability;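 also: spheroids exposed to agents for 7 days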
Assay: Anticancer human tumor CN0375-F725-PDC patient-derived colon carcinoma cell line growth inhibition [KRAS2]
Settings: compound 3.16 µM; hits give low values; spheroids with HUVEC and MSC
viability, T/C for assorted compounds

Observe how each entry below is paired with its result.
[
  {
    "compound": "COc1cc(OC)cc(N(CCNC(C)C)c2ccc3ncc(-c4cnn(C)c4)nc3c2)c1",
    "recorded_value": "82.9% [middle of 5 runs]"
  },
  {
    "compound": "COc1cc2nccc(Oc3ccc(NC(=O)C4(C(=O)Nc5ccc(F)cc5)CC4)cc3)c2cc1OC",
    "recorded_value": "57.1% [middle of 5 runs]"
  },
  {
    "compound": "CC1OCC2(CCN(c3cnc(Sc4ccnc(N)c4Cl)c(N)n3)CC2)C1N (stereo not given)",
    "recorded_value": "78.7% [middle of 20 runs]"
  },
  {
    "compound": "COc1cc2nc(C)nc(NC(C)c3cc(N)cc(C(F)(F)F)c3)c2cc1OC1CCOC1 (stereo not given)",
    "recorded_value": "83.4% [middle of 17 runs]"
  }
]

Now examine the next entry.
**Query** Give viability, T/C (CN0375-F725-PDC KRAS spheroid viability) of the following compound: "COc1cc(Nc2ncc3c(n2)-c2ccc(Cl)cc2C(c2c(F)cccc2OC)=NC3)ccc1C(=O)O"
**Result** 94.8% [middle of 5 runs]

Origin of values: PubChem BioAssay AID1963860
